Source: the supplement of paper PMC11061612

- Test system: CaR-1 (Colorectal Carcinoma);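 also: after 72 h of two-drug dosing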
- Procedure text: Bliss excess, mean over the matrix (fraction); higher = more synergy
Each entry below carries its recorded Bliss excess.
Measurement kind: Bliss excess

{"Compound": "CC1(C)CCC(CN2CCN(c3ccc(C(=O)NS(=O)(=O)c4ccc(NCC5CCOCC5)c([N+](=O)[O-])c4)c(Oc4cnc5[nH]ccc5c4)c3)CC2)=C(c2ccc(Cl)cc2)C1 [Venetoclax] + CS(=O)(=O)CCNCc1ccc(-c2ccc3ncnc(Nc4ccc(OCc5cccc(F)c5)c(Cl)c4)c3c2)o1 [Lapatinib] (first compound max 1 µM, 7x7, partner max 10 µM)", "Reported": -0.0553}
{"Compound": "CC(=O)Nc1cccc(-n2c(=O)n(C3CC3)c(=O)c3c(Nc4ccc(I)cc4F)n(C)c(=O)c(C)c32)c1 [Trametinib] + Cc1nc(-c2cn3c(n2)-c2ccc(-c4cnn(C(C)(C)C(N)=O)c4)cc2OCC3)n(C(C)C)n1 [Taselisib] (first compound max 1 µM, 7x7, partner max 10 µM)", "Reported": 0.0783}
{"Compound": "CC1(C)CCC(CN2CCN(c3ccc(C(=O)NS(=O)(=O)c4ccc(NCC5CCOCC5)c([N+](=O)[O-])c4)c(Oc4cnc5[nH]ccc5c4)c3)CC2)=C(c2ccc(Cl)cc2)C1 [Venetoclax] + C[C@@H]1COCCN1C2=NC(=NC(=C2)C3(CC3)[S@](=N)(=O)C)C4=C5C=CNC5=NC=C4 [AZD6738] (first compound max 1 µM, 7x7, partner max 10 µM)", "Reported": -0.0005}
{"Compound": "CC(=O)c1c(C)c2cnc(Nc3ccc(N4CCNCC4)cn3)nc2n(C2CCCC2)c1=O [Palbociclib] + Cn1cnc2c(F)c(Nc3ccc(Br)cc3Cl)c(C(=O)NOCCO)cc21 [Selumetinib] (first compound max 10 µM, 7x7, partner max 10 µM)", "Reported": -0.0229}
{"Compound": "C=CCn1c(=O)c2cnc(Nc3ccc(N4CCN(C)CC4)cc3)nc2n1-c1cccc(C(C)(C)O)n1 [AZD1775] + C1CN(CCC1(C(=O)N[C@@H](CCO)C2=CC=C(C=C2)Cl)N)C3=NC=NC4=C3C=CN4 [Capivasertib] (first compound max 3 µM, partner max 3 µM)", "Reported": 0.0453}
{"Compound": "C=CCn1c(=O)c2cnc(Nc3ccc(N4CCN(C)CC4)cc3)nc2n1-c1cccc(C(C)(C)O)n1 [AZD1775] + CCc1c2c(nc3ccc(O)cc13)-c1cc3c(c(=O)n1C2)COC(=O)[C@]3(O)CC [SN-38] (first compound max 1 µM, partner max 0.3 µM)", "Reported": -0.0429}
{"Compound": "C[C@@H](Nc1cc(F)cc(F)c1)c1cc(C(=O)N(C)C)cc2c(=O)cc(N3CCOCC3)oc12 [AZD8186] + CC(=O)c1c(C)c2cnc(Nc3ccc(N4CCNCC4)cn3)nc2n(C2CCCC2)c1=O [Palbociclib] (first compound max 10 µM, 7x7, partner max 10 µM)", "Reported": -0.0054}
{"Compound": "CC1(C)CCC(CN2CCN(c3ccc(C(=O)NS(=O)(=O)c4ccc(NCC5CCOCC5)c([N+](=O)[O-])c4)c(Oc4cnc5[nH]ccc5c4)c3)CC2)=C(c2ccc(Cl)cc2)C1 [Venetoclax] + C=CCn1c(=O)c2cnc(Nc3ccc(N4CCN(C)CC4)cc3)nc2n1-c1cccc(C(C)(C)O)n1 [AZD1775] (first compound max 1 µM, partner max 1 µM)", "Reported": -0.0159}
{"Compound": "Cc1c2c(nn1C)CSCc1cc(n(C)n1)CSc1cc(c3ccccc3c1)OCCCc1c(C(=O)O)n(C)c3c-2c(Cl)ccc13 [AZD5991] + C1CN(CCC1(C(=O)N[C@@H](CCO)C2=CC=C(C=C2)Cl)N)C3=NC=NC4=C3C=CN4 [Capivasertib] (first compound max 1 µM, 7x7, partner max 3 µM)", "Reported": -0.0295}
{"Compound": "CN(C)CCCOc1ccc(-c2ccc3ncc4c(c3c2)n(C2CCOCC2)c(=O)n4C)cn1 [AZD0156] + CCN(CCO)CCCOc1ccc2c(Nc3cc(CC(=O)Nc4cccc(F)c4)[nH]n3)ncnc2c1 [AZD2811] (first compound max 1 µM, 7x7, partner max 1 µM)", "Reported": -0.0097}
{"Compound": "COc1cccc2c1C(=O)c1c(O)c3c(c(O)c1C2=O)C[C@@](O)(C(=O)CO)C[C@@H]3O[C@H]1C[C@H](N)[C@H](O)[C@H](C)O1 [Doxorubicin] + Cc1cc2ncnn2cc1Nc1ncc2c(n1)n(C1CCOCC1)c(=O)n2C [AZD7648] (first compound max 1 µM, 7x7, partner max 10 µM)", "Reported": 0.0309}
{"Compound": "CN(CCO)CC[C@H](CSc1ccccc1)Nc1ccc(S(=O)(=O)NC(=O)c2ccc(N3CCC([C@@H](O)c4ccccc4-c4ccc(Cl)cc4)CC3)cc2)cc1S(=O)(=O)C(F)(F)F [AZD4320] + C=CCn1c(=O)c2cnc(Nc3ccc(N4CCN(C)CC4)cc3)nc2n1-c1cccc(C(C)(C)O)n1 [AZD1775] (first compound max 1 µM, partner max 1 µM)", "Reported": -0.0375}
{"Compound": "CC1(C)CCC(CN2CCN(c3ccc(C(=O)NS(=O)(=O)c4ccc(NCC5CCOCC5)c([N+](=O)[O-])c4)c(Oc4cnc5[nH]ccc5c4)c3)CC2)=C(c2ccc(Cl)cc2)C1 [Venetoclax] + Cc1cc2ncnn2cc1Nc1ncc2c(n1)n(C1CCOCC1)c(=O)n2C [AZD7648] (first compound max 1 µM, 7x7, partner max 10 µM)", "Reported": -0.048}
